src = the supplement of paper PMC10567573

Can you tell me protein stability index for the items I'm about to list?
B1: TOR1AIP2 (parent)
chain: HHVADAYTSSQKVSPIQIDGAGRT

Variants of: B1
Assay: protein stability index of a GFP-peptide fusion (GPS, HEK-293T) (PSI 1-6); higher = more stable;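 further: lentivirally expressed fusions sorted by FACS into six bins by GFP to DsRed ratio, PSI derived from sequencing read proportions per bin multiplied by bin number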
Conditions: c terminus: a fixed tail appended
One number for each entry.

Examples with their reported protein stability index follow.
>>> reported("T8K")
3.49
>>> reported("H2N")
4.27
>>> reported("P15I")
2.77
>>> reported("Y7G")
4.6
>>> reported("D19Y")
2.47
>>> reported("G20E")
3.36
>>> reported("H2K")
4.32
>>> reported("R23N")
3.81
>>> reported("Q11P")
3.74
>>> reported("K12C")
3.06

Consider the record given below.
Lab note: `I16F` gave protein stability index of 3.49
